The origin of these recorded values is paper PMC11714206.

# systemUnderTest: MyD88^TIR (Homo sapiens, UniProt Q99836)
# Construct: MyD88 (residues 148–296); 6xHis; made in house; host or cells: E. coli BL21 (DE3)
# Sequence (Q99836 148-296): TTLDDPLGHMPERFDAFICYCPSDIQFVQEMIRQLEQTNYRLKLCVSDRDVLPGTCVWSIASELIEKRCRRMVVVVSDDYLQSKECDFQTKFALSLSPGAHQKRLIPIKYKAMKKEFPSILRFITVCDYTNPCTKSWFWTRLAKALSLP
# measurementProtocol: T‐Surf phage library (P8 and P3) selection against MyD88^TIR, four rounds, NGS read counts
# Format: binding
# experimentalConditions: P8 library, selection against MyD88, rank by count after grouping
I'd be grateful if you could share measured P8_MyD88 Rank (after) for these entries.
# answer = number (no unit)

Given YASSSWALDELLQILW , state its recorded P8_MyD88 Rank (after).
720

Given VSHLSDSFERYGIMFF , state its recorded P8_MyD88 Rank (after).
731

Given WALDELLKILHADETM , state its recorded P8_MyD88 Rank (after).
687

Given DGGWDYLLPNVEGPAC , state its recorded P8_MyD88 Rank (after).
760

Given MFGGDTFHDFLDLLA , state its recorded P8_MyD88 Rank (after).
690

Given GLSWGPYEWCRGLYDA , state its recorded P8_MyD88 Rank (after).
770

Given DPQDLDWIYERLVCLF , state its recorded P8_MyD88 Rank (after).
732

Given YAASPWWFDELVHILW , state its recorded P8_MyD88 Rank (after).
678

Given DWGWGYLLPNLEGPAG , state its recorded P8_MyD88 Rank (after).
707

Given IDDDHLTYLVRLLQIA , state its recorded P8_MyD88 Rank (after).
761

Given CALDELLHILHARELF , state its recorded P8_MyD88 Rank (after).
724

Given YASYDDNDYYWMTHVLLRHM , state its recorded P8_MyD88 Rank (after).
771

Given WALDVLLQFLHARELF , state its recorded P8_MyD88 Rank (after).
723

Given PDEVKRTVGLTFSLSL , state its recorded P8_MyD88 Rank (after).
739

Given YLRADDSCSWEKLRYA , state its recorded P8_MyD88 Rank (after).
694

Given DWVLGYRLPNLEGPAG , state its recorded P8_MyD88 Rank (after).
741

Given YASYDDNDYYWLTNVLLRLL , state its recorded P8_MyD88 Rank (after).
710

Given STTYLQWGDNWFWDKL , state its recorded P8_MyD88 Rank (after).
740

Given EDSIFYAVSSGALDEP , state its recorded P8_MyD88 Rank (after).
697

Given WALDELLQILRARDLF , state its recorded P8_MyD88 Rank (after).
727

Given DWVWDYLLPDLLGPAG , state its recorded P8_MyD88 Rank (after).
700

Given PQDQEWFYERIVSLP , state its recorded P8_MyD88 Rank (after).
726

Given WDFAGNWEQFWDRLSY , state its recorded P8_MyD88 Rank (after).
772

Given WLLDQLDKILEAHGTT , state its recorded P8_MyD88 Rank (after).
693

Given LGYHCHDREYFVGIED , state its recorded P8_MyD88 Rank (after).
717

Given WALVELLHIRHARELF , state its recorded P8_MyD88 Rank (after).
709

Given YASSWWLRELLQIA , state its recorded P8_MyD88 Rank (after).
686
